All figures here come from the supplement of paper PMC6555819.

tested on: PPARg:RXRa 30nM:10nM, anti-RXR (NR concentration 30 nM, RXRa partner concentration 10 nM); assay: PBM binding z-score (relative to random genomic background probes); higher = stronger binding; sequences stand for … in GC…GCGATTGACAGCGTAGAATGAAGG
Listed here are sequences together with their documented PBM binding z-score.

| constructSequence | PBM binding z-score |
| --- | --- |
| TCTTTTAGATCAAAGGTTAAGAAAGCCGAAGCCT | 6.34 |
| TGAATGAGGTTATAAGATCGGGGAACGTTGCAAA | 0.637 |
| ATCTCTAGGTAACAAGCTCAGTGAAAGAGAGGAC | 0.327 |
| CCTAGCAGGCCAGGGTCACTCAAGCATTTCGCTT | -0.362 |
| GCTTACGGGTCAAACGTTATAGCATGAATAGAAT | 2.96 |
| ATAGGTAGGTTATCGGGTCATTCAGTTTGCGCAT | 1.91 |
| GCTTGTAGATCAAAGTTAAGAAAGACTAAGCTAA | 2.13 |
| CAGCCTAGGTCAGGGCCCGTATAGGAGGAACGTT | -0.158 |
| GCTTATAGGTAATACAAGGTGAAAGTCCGATTGT | 0.379 |
| CCGAGTAGGTTATGGGGCAGTCAGGCAACGGTGA | 1.39 |
| ACAGACAAGTGAGTGAAGGTAACTCAGCTGGACG | -0.202 |
| TAGCCTAGGTCAGATCGGTCCAGTATACGCTATA | -0.239 |
| CGTCCAAGGTCAAAAGTCAGTGAAGAGATGACGG | 3.41 |
| TCATAAAGGTAAACAGGTGAAAGTCCGTAAGTTA | 4.28 |
| AGAACGAGGGCACGCTGAGTTGCTAGCAGAGTAG | 0.179 |
| GCAGACAGGTGAAACGCAGGTAACTCAAGGTGGC | -0.0664 |
| CCGACTGGGGCAAGGTTGCCATAACGCACAGCCA | 0.553 |
| TCTAGCAGGCCAGAGAGTCACTCAAGAGGTACGG | 1.72 |
| GCTTGTAGATCAACGTTAAGAAAGACTAAGCTAA | -0.364 |
| CCTACTGGGCCATTCAGACGTCATTGATCATATG | 0.0211 |
| CCTCGGAGGACAGACGGTCAGAGCTGTCCGCTTT | -1.36 |
| AGCATGAGGTTACCAAAGATCAGGGAAACGCTTG | 0.579 |
| CTTTACGGGTCACTGACAGGTTATAGCATTTGGA | 2.12 |
| ATCTCTAGGTCAGACTCAGTTCAGTGAAGAACGC | 0.87 |
| TTACCAAGGTGAGCTGGGGTCGTTGATCCAACTC | -0.099 |
| ATCTCTAGGTAACAAGTTCAGTGGAAGAGAGGAC | 0.967 |
| GCCCGGAGGACAAGGTCAGAGCTTTGTCCGTAGA | -0.793 |
